Molecular target: CDK1/Cyclin B1, GST-tag (Homo sapiens, UniProt P06493)
Construct: GST; purchased BPS 40454
Assay: Enzymatic phosphorylation activity assay (Caliper mobility shift), CDK1/Cyclin B1
Type: biochemical
Conditions: read-out: Enzyme CDK1/cyclin B1 IC50
Measured Attribute: IC50 (nM)

# annotated cases, reported IC50 shown
# Compound, IC50 (nM)
rows = [
    ("FC(F)Oc1cc(Nc2cnc3ccn(CC4CCOCC4)c3n2)n[nH]1 [Example 2]", 163),
    ("CC(C)c1cc(Nc2cnc3ccn([C@H](C)c4cccnc4)c3n2)n[nH]1 [Example 4]", 54),
]

P: C[C@@H](c1cccnc1)n1ccc2ncc(Nc3cc(OC(F)F)[nH]n3)nc21 [Example 5]
Q: CC(C)c1cc(Nc2cnc3ccn(CC4CCOCC4)c3n2)n[nH]1 [Example 1]
Data request: Please indicate which entry, P or Q , has the lower recorded IC50 value. Please reply using the label of the selected record.
Data returned: Q
(Q: 115 nM, P: 224 nM)

---

Biological target: CDK1/Cyclin B (Homo sapiens, UniProt P06493)
Construct: NV2601
Sequence (P06493 whole entry): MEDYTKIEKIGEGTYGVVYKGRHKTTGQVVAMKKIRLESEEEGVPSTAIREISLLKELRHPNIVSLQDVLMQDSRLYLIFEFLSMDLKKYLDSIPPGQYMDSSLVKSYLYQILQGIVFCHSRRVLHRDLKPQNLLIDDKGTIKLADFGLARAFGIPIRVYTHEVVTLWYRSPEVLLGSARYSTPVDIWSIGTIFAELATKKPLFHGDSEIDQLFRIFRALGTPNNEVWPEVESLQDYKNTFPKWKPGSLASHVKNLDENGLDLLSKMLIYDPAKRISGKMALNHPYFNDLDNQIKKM
Sequence (P14635 whole entry partner): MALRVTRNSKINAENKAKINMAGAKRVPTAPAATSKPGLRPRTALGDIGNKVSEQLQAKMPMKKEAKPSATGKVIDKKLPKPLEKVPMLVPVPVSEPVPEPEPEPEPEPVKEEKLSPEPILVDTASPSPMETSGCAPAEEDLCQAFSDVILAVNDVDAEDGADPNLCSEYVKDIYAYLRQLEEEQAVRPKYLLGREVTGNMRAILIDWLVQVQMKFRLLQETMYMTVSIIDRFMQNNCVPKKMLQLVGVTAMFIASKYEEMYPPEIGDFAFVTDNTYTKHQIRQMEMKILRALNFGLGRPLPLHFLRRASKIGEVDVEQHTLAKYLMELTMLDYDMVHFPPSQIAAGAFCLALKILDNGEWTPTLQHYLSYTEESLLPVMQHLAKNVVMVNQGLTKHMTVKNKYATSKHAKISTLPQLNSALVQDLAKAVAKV
Assay: NanoBRET cellular target engagement assay, CDK1/Cyclin B in HEK-293 cells
Conditions: HEK-293 cells transfected with CDK1-NanoLuc and CCNB1; tracer K10 0.5 μM; 2 hrs
Measured Attribute: IC50 (nM)

# Cpd Smiles, Measured Result
data = [
    ("FC(F)Oc1cc(Nc2cnc3ccn(Cc4cccnn4)c3n2)n[nH]1", 898),
]

a: COc1cc(Nc2cnc3ccn(Cc4cccnc4)c3n2)n[nH]1
b: c1cnnc(Cn2ccc3ncc(Nc4cc(C5COC5)[nH]n4)nc32)c1
Data request: Please indicate which entry, a or b , has the lower recorded IC50 value. Please reply using the label of the selected record.
Data returned: a
(a: 660 nM, b: 1300 nM)

Values from patent US20260217719A1
